These entries and their values trace back to patent US6974804B2.

assay: Gelling of water-immiscible cosmetic liquids in 96 well glass micro-titre plate; type: physicochemical; set-up: key: gel; g4: gel after overnight (18 hrs) storage at 4° C.; g22: gel after overnight (18 hrs) storage at 22° C.; sg: soft gel; sg22: soft gel after overnight (18 hrs) storage at 22° C.; solution; *: the test at 4° C. was not carried out; details: 5% cellobiose ester in Mineral oil

| compound | gelling of Mineral oil |
| --- | --- |
| CCCCCCCCC(=O)OCC1OC(OC2C(COC(=O)CCCCCCCC)OC(OC(=O)CCCCCC)C(OC(=O)CCCCCCCC)C2OC(=O)CCCCCCCC)C(OC(=O)CCCCCCCC)C(OC(=O)CCCCCCCC)C1OC(=O)CCCCCCCC (mixture of isomers) | sol |
| CCCCCCCCC(=O)OCC1OC(OC2C(COC(=O)CCCCCCCC)OC(OC(=O)CC)C(OC(=O)CCCCCCCC)C2OC(=O)CCCCCCCC)C(OC(=O)CCCCCCCC)C(OC(=O)CCCCCCCC)C1OC(=O)CCCCCCCC (mixture of isomers) | gel |
| CCCCCCCCC(=O)OCC1OC(OC2C(COC(=O)CCCCCCCC)OC(OC(=O)c3ccccc3)C(OC(=O)CCCCCCCC)C2OC(=O)CCCCCCCC)C(OC(=O)CCCCCCCC)C(OC(=O)CCCCCCCC)C1OC(=O)CCCCCCCC (mixture of isomers) [Ex 1.2] | sg |
| CCCCCCCCCC(=O)OCC1OC(OC2C(COC(=O)CCCCCCCCC)OC(OC(=O)c3ccc(-c4ccccc4)cc3)C(OC(=O)CCCCCCCCC)C2OC(=O)CCCCCCCCC)C(OC(=O)CCCCCCCCC)C(OC(=O)CCCCCCCCC)C1OC(=O)CCCCCCCCC (mixture of isomers) | sg |
| CCCCCCCCCCCCCCCC(=O)OC1OC(COC(=O)CCCCCCCC)C(OC2OC(COC(=O)CCCCCCCC)C(OC(=O)CCCCCCCC)C(OC(=O)CCCCCCCC)C2OC(=O)CCCCCCCC)C(OC(=O)CCCCCCCC)C1OC(=O)CCCCCCCC (mixture of isomers) [Ex 1.9] | g22 |
| CCCCCCCCCC(=O)OCC1OC(OC2C(COC(=O)CCCCCCCCC)OC(OC(=O)C3CCCCC3)C(OC(=O)CCCCCCCCC)C2OC(=O)CCCCCCCCC)C(OC(=O)CCCCCCCCC)C(OC(=O)CCCCCCCCC)C1OC(=O)CCCCCCCCC (mixture of isomers) | gel |
| CCCCCCCCCC(=O)OCC1OC(OC2C(COC(=O)CCCCCCCCC)OC(OC(=O)c3ccc4ccccc4c3)C(OC(=O)CCCCCCCCC)C2OC(=O)CCCCCCCCC)C(OC(=O)CCCCCCCCC)C(OC(=O)CCCCCCCCC)C1OC(=O)CCCCCCCCC (mixture of isomers) | gel |

----------
Known Clarity % T of a selection of compounds
assay: Light transmission at 580 nm (% T); type: physicochemical; settings: 9% REF4 plus 1% of the named material; 580 nm
propertyLabel: Clarity % T (%)

| compound | observedValue |
| --- | --- |
| CCCCCCCCCC(=O)OCC1OC(OC2C(COC(=O)CCCCCCCCC)OC(OC(=O)C3CCCCC3)C(OC(=O)CCCCCCCCC)C2OC(=O)CCCCCCCCC)C(OC(=O)CCCCCCCCC)C(OC(=O)CCCCCCCCC)C1OC(=O)CCCCCCCCC (mixture of isomers) | 5.9 |
| CCCCCCCCCC(=O)OCC1OC(O)C(OC(=O)CCCCCCCCC)C(OC(=O)CCCCCCCCC)C1OC1OC(COC(=O)CCCCCCCCC)C(OC(=O)CCCCCCCCC)C(OC(=O)CCCCCCCCC)C1OC(=O)CCCCCCCCC (mixture of isomers) [REF 6, reference compound] | 0.8 |
| CCCCCCCCCC(=O)OCC1OC(OC2C(COC(=O)CCCCCCCCC)OC(OC(=O)c3ccccc3)C(OC(=O)CCCCCCCCC)C2OC(=O)CCCCCCCCC)C(OC(=O)CCCCCCCCC)C(OC(=O)CCCCCCCCC)C1OC(=O)CCCCCCCCC (mixture of isomers) [Ex 2.6] | 4.5 |
